Assignment: determine reported log10(IC50) for the given molecules.
# tested-system: human hNET (Homo sapiens, UniProt P23975)
# Construct: expressed in transfected cells; host or cells: MDCK-Net6 (MDCK cells stably transfected with hNET)
# Sequence (P23975 whole entry): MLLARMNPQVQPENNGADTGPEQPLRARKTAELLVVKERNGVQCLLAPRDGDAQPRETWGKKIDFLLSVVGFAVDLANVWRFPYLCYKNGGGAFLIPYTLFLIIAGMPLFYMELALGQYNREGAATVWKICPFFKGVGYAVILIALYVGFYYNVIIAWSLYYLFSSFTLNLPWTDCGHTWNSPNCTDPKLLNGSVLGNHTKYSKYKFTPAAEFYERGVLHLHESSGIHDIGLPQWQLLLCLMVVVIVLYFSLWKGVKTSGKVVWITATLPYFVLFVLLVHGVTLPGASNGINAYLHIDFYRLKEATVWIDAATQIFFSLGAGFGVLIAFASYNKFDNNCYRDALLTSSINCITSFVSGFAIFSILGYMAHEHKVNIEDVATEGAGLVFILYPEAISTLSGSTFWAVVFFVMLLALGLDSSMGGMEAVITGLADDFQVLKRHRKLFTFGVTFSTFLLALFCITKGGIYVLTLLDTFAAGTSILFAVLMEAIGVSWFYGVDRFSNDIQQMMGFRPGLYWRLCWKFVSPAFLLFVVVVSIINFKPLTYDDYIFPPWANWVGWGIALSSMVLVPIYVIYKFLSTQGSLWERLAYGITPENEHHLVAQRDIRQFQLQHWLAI
# method-summary: Functional norepinephrine reuptake assay, Procedure B (6,000 cells/well)
# Type: cell-based
# assay-setup: MDCK-Net6 cells, 6,000 cells/well, 16 nM 3H-norepinephrine; read-out: Procedure B hNET uptake IC50
Counter-ions that a name gives are not always drawn.
Use the decimal logarithm of IC50 (nM).

## Input Using known records, supply log10(IC50) for CNCCC[C@@H]1Cc2ccccc2N(c2ccc(F)cc2F)S1(=O)=O (single isomer, unassigned) [Example 101]
## Output 1.69

## Input Specify reported log10(IC50) for the molecule shown: CNCCCC1Oc2ccccc2N(c2ccc3ccccc3c2)S1(=O)=O (centres unmarked) [Example 21]
## Output 3.66

## Input # return recorded log10(IC50) for entry CN(C)CCC1Oc2ccccc2N(c2ccccc2)S1(=O)=O (centres unmarked) [Example 26]
## Output 1.99

## Input Respond only with log10(IC50) recorded for CNCCCC1Cc2ccccc2N(c2ccccc2)S1(=O)=O (centres unmarked) [Example 1]
## Output 1.27

## Input Kindly indicate its recorded log10(IC50). Item: CNCCC[C@H]1Cc2cc(F)ccc2N(c2ccc(C)cc2F)S1(=O)=O (single isomer, unassigned) [Example 149]
## Output 1.87

## Input For the molecule CNCCCC1Oc2ccc(Cl)cc2N(c2ccccc2)S1(=O)=O (centres unmarked) [Example 53] , give its measured log10(IC50) value.
## Output 2.27

## Input Fill in log10(IC50) for record CNCCC[C@H]1Cc2ccccc2N(c2ccccc2F)S1(=O)=O (single isomer, unassigned) [Example 74, Hydrochloride]
## Output 1.77

## Input Answer with the recorded log10(IC50) for the molecule listed here: CNCCC[C@@H]1Oc2cc(F)ccc2N(c2ccccc2)S1(=O)=O (single isomer, unassigned) [Example 107]
## Output 1.87

---

# tested-system: human hNET (Homo sapiens, UniProt P23975)
# Construct: expressed in transfected cells; host or cells: MDCK-Net6 (MDCK cells stably transfected with hNET)
# method-summary: Functional norepinephrine reuptake assay, Procedure B (6,000 cells/well)
# Assay type: cell-based
# assay-setup: MDCK-Net6 cells, 6,000 cells/well, 16 nM 3H-norepinephrine; read-out: Procedure B hNET uptake IC50
Counter-ions that a name gives are not always drawn.
recorded-metric: IC50 (nM)
Report only the number, with the unit nM understood.

## Input Give IC50 for this entry on human hNET (Homo sapiens, UniProt P23975): NCCC1Oc2ccccc2N(c2ccccc2)S1(=O)=O (stereo not shown)
## Output 583

## Input Lab note: record IC50 of CN(C)CCNCC1Oc2ccccc2N(c2ccccc2)S1(=O)=O (stereo not shown) tested on human hNET (Homo sapiens, UniProt P23975).
## Output 3750

## Input Param request: IC50 | system human hNET (Homo sapiens, UniProt P23975) | item NCC[C@@H]1Oc2ccccc2N(c2ccccc2)S1(=O)=O (single isomer, unassigned)
## Output 3320

## Input # return IC50 for CNCCCC1Oc2ccccc2N(c2ccc(OC)cc2)S1(=O)=O (stereo not shown) , test system: human hNET (Homo sapiens, UniProt P23975)
## Output 1200

## Input Provide IC50, system human hNET (Homo sapiens, UniProt P23975), entry CNCCC[C@@H]1Cc2cc(F)ccc2N(c2ccccc2OC)S1(=O)=O (single isomer, unassigned)
## Output 341

## Input Check human hNET (Homo sapiens, UniProt P23975) data and give IC50 for CNCCC[C@H]1Cc2ccccc2N(c2cccnc2)S1(=O)=O (single isomer, unassigned) .
## Output 1710

## Input System human hNET (Homo sapiens, UniProt P23975). Read-out IC50. Item CCNCC1Oc2ccccc2N(c2ccccc2)S1(=O)=O (stereo not shown) . Report value.
## Output 1360

## Input Write IC50 of CCNCCC1Oc2ccccc2N(c2ccccc2)S1(=O)=O (stereo not shown) ; system used: human hNET (Homo sapiens, UniProt P23975)
## Output 244

## Input State measured IC50 of the compound CNCCC[C@@H]1Oc2cc3ccccc3cc2N(c2ccccc2)S1(=O)=O (single isomer, unassigned) [Example 72, Hydrochloride] with human hNET (Homo sapiens, UniProt P23975).
## Output 115

## Input Write down measured IC50 (human hNET (Homo sapiens, UniProt P23975)) for this compound. CNCCCC1Cc2cc(F)ccc2N(c2ccccc2OC)S1(=O)=O (racemic)
## Output 304

## Input Under human hNET (Homo sapiens, UniProt P23975), report IC50 for CNCCC[C@H]1Cc2cc(F)ccc2N(c2cc(F)ccc2F)S1(=O)=O (single isomer, unassigned)
## Output 40

## Input Look up and report IC50, with human hNET (Homo sapiens, UniProt P23975) as system, for CN(CCCC1Oc2ccccc2N(c2ccccc2)S1(=O)=O)Cc1ccccc1 (stereo not shown) [Example 58, hydrochloride]
## Output 822

## Input Given CNCCCC1Cc2cc(F)ccc2N(c2cccc(F)c2F)S1(=O)=O (racemic) , report its IC50 on human hNET (Homo sapiens, UniProt P23975).
## Output 74

## Input Enter measured IC50, system human hNET (Homo sapiens, UniProt P23975), for the compound shown: CNCCC[C@H]1Oc2cc3ccccc3cc2N(c2ccccc2)S1(=O)=O (single isomer, unassigned) [Example 71, Hydrochloride]
## Output 69.4

## Input GET IC50 | system: human hNET (Homo sapiens, UniProt P23975) | item: CNCC[C@H]1Oc2cc(F)ccc2N(c2ccccc2)S1(=O)=O (single isomer, unassigned)
## Output 143

## Input Fetch value of IC50 on human hNET (Homo sapiens, UniProt P23975) for CNCCC[C@@H]1Cc2cc(F)ccc2N(c2ccc(F)cc2F)S1(=O)=O (single isomer, unassigned) .
## Output 34
